assay: Plasma protein binding by equilibrium dialysis, human plasma; type: in vitro ADME; conditions: male, human, plasma, nominal 100 ng/mL, single replicates, read-out: % Bound (converted)
Starred links: 1 amine or outer side, 2 acyl side, 3 side chain; linkers in the order of their positions; H or OH if unused. Positions of bridges follow the written chain, without caps; N, C: chain ends. Non-standard residues stand in square brackets, D forms with d. Residues, ends and D or L forms follow the SMILES beside them. *: point of attachment. X1 = CC[C@H](C)[C@@H](N[*:1])[C@@H](O)CC(=O)O[C@H](C(=O)[C@H](C)C(=O)[*:2])C(C)C; NMeY = CN[C@@H](Cc1ccc(O)cc1)C(=O)O; dNMeL = CN[C@H](CC(C)C)C(=O)O; Pyruvoyl = CC(=O)C(=O)*
Assay metric: fraction unbound at 5 h, 100 ng/mL

INSERT INTO results (compound, experimental_value) VALUES
  ('CC[C@H](C)[C@H]1NC(=O)[C@@H](NC(=O)[C@@H](CC(C)C)N(C)C(=O)[C@@H]2CCCN2C(=O)C(C)=O)[C@@H](C)OC(=O)[C@H](Cc2ccc(OC)cc2)N(C)C(=O)[C@@H]2CCCN2C(=O)[C@H](CC(C)C)NC(=O)[C@@H](C)C(=O)[C@H](C(C)C)OC(=O)C[C@@H]1O [Plitidepsin] (Pyruvoyl-P[dNMeL]T[X1]LP[NMeY](Me); ester 3-C)', 0.014);

----------
assay: Plasma protein binding by equilibrium dialysis, human plasma; format: in vitro ADME; conditions: male, human, plasma, nominal 100 ng/mL, Mean ± SD, read-out: % Unbound
Starred links: 1 amine or outer side, 2 acyl side, 3 side chain; linkers in the order of their positions; H or OH if unused. Positions of bridges follow the written chain, without caps; N, C: chain ends. Non-standard residues stand in square brackets, D forms with d. Residues, ends and D or L forms follow the SMILES beside them. *: point of attachment. X1 = CC[C@H](C)[C@@H](N[*:1])[C@@H](O)CC(=O)O[C@H](C(=O)[C@H](C)C(=O)[*:2])C(C)C; NMeY = CN[C@@H](Cc1ccc(O)cc1)C(=O)O; dNMeL = CN[C@H](CC(C)C)C(=O)O; Pyruvoyl = CC(=O)C(=O)*
Assay metric: fraction unbound at 5 h, 100 ng/mL

INSERT INTO results (compound, experimental_value) VALUES
  ('CC[C@H](C)[C@H]1NC(=O)[C@@H](NC(=O)[C@@H](CC(C)C)N(C)C(=O)[C@@H]2CCCN2C(=O)C(C)=O)[C@@H](C)OC(=O)[C@H](Cc2ccc(OC)cc2)N(C)C(=O)[C@@H]2CCCN2C(=O)[C@H](CC(C)C)NC(=O)[C@@H](C)C(=O)[C@H](C(C)C)OC(=O)C[C@@H]1O [Plitidepsin] (Pyruvoyl-P[dNMeL]T[X1]LP[NMeY](Me); ester 3-C)', 0.017);

----------
test: Plasma protein binding by equilibrium dialysis, human plasma; type: in vitro ADME; details: male, human, plasma, nominal 500 ng/mL, single replicates, read-out: % Bound (converted)
Starred links: 1 amine or outer side, 2 acyl side, 3 side chain; linkers in the order of their positions; H or OH if unused. Positions of bridges follow the written chain, without caps; N, C: chain ends. Non-standard residues stand in square brackets, D forms with d. Residues, ends and D or L forms follow the SMILES beside them. *: point of attachment. X1 = CC[C@H](C)[C@@H](N[*:1])[C@@H](O)CC(=O)O[C@H](C(=O)[C@H](C)C(=O)[*:2])C(C)C; NMeY = CN[C@@H](Cc1ccc(O)cc1)C(=O)O; dNMeL = CN[C@H](CC(C)C)C(=O)O; Pyruvoyl = CC(=O)C(=O)*
Assay metric: fraction unbound at 5 h, 500 ng/mL

INSERT INTO assay_data (compound, experimental_value) VALUES
  ('CC[C@H](C)[C@H]1NC(=O)[C@@H](NC(=O)[C@@H](CC(C)C)N(C)C(=O)[C@@H]2CCCN2C(=O)C(C)=O)[C@@H](C)OC(=O)[C@H](Cc2ccc(OC)cc2)N(C)C(=O)[C@@H]2CCCN2C(=O)[C@H](CC(C)C)NC(=O)[C@@H](C)C(=O)[C@H](C(C)C)OC(=O)C[C@@H]1O [Plitidepsin] (Pyruvoyl-P[dNMeL]T[X1]LP[NMeY](Me); ester 3-C)', 0.019);

----------
assay: Plasma protein binding by equilibrium dialysis, human plasma; assay type: in vitro ADME; details: male, human, plasma, nominal 500 ng/mL, mean, n=2, read-out: % Unbound
Starred links: 1 amine or outer side, 2 acyl side, 3 side chain; linkers in the order of their positions; H or OH if unused. Positions of bridges follow the written chain, without caps; N, C: chain ends. Non-standard residues stand in square brackets, D forms with d. Residues, ends and D or L forms follow the SMILES beside them. *: point of attachment. X1 = CC[C@H](C)[C@@H](N[*:1])[C@@H](O)CC(=O)O[C@H](C(=O)[C@H](C)C(=O)[*:2])C(C)C; NMeY = CN[C@@H](Cc1ccc(O)cc1)C(=O)O; dNMeL = CN[C@H](CC(C)C)C(=O)O; Pyruvoyl = CC(=O)C(=O)*
Assay metric: fraction unbound at 5 h, 500 ng/mL

INSERT INTO results (molecule, assay_metric, experimental_value) VALUES
  ('CC[C@H](C)[C@H]1NC(=O)[C@@H](NC(=O)[C@@H](CC(C)C)N(C)C(=O)[C@@H]2CCCN2C(=O)C(C)=O)[C@@H](C)OC(=O)[C@H](Cc2ccc(OC)cc2)N(C)C(=O)[C@@H]2CCCN2C(=O)[C@H](CC(C)C)NC(=O)[C@@H](C)C(=O)[C@H](C(C)C)OC(=O)C[C@@H]1O [Plitidepsin] (Pyruvoyl-P[dNMeL]T[X1]LP[NMeY](Me); ester 3-C)', 'fraction unbound at 5 h, 500 ng/mL', 0.019);

----------
experiment: Plasma protein binding by equilibrium dialysis, human plasma; type: in vitro ADME; conditions: male, human, plasma, nominal 100 ng/mL, Mean ± SD
Starred links: 1 amine or outer side, 2 acyl side, 3 side chain; linkers in the order of their positions; H or OH if unused. Positions of bridges follow the written chain, without caps; N, C: chain ends. Non-standard residues stand in square brackets, D forms with d. Residues, ends and D or L forms follow the SMILES beside them. *: point of attachment. X1 = CC[C@H](C)[C@@H](N[*:1])[C@@H](O)CC(=O)O[C@H](C(=O)[C@H](C)C(=O)[*:2])C(C)C; NMeY = CN[C@@H](Cc1ccc(O)cc1)C(=O)O; dNMeL = CN[C@H](CC(C)C)C(=O)O; Pyruvoyl = CC(=O)C(=O)*
Assay metric: recovery at 100 ng/mL (%)

INSERT INTO assay_data (compound, experimental_value) VALUES
  ('CC[C@H](C)[C@H]1NC(=O)[C@@H](NC(=O)[C@@H](CC(C)C)N(C)C(=O)[C@@H]2CCCN2C(=O)C(C)=O)[C@@H](C)OC(=O)[C@H](Cc2ccc(OC)cc2)N(C)C(=O)[C@@H]2CCCN2C(=O)[C@H](CC(C)C)NC(=O)[C@@H](C)C(=O)[C@H](C(C)C)OC(=O)C[C@@H]1O [Plitidepsin] (Pyruvoyl-P[dNMeL]T[X1]LP[NMeY](Me); ester 3-C)', 84.3);

----------
assay: Plasma protein binding by equilibrium dialysis, human plasma; type: in vitro ADME; settings: male, human, plasma, nominal 500 ng/mL, single replicates, read-out: % Unbound
Starred links: 1 amine or outer side, 2 acyl side, 3 side chain; linkers in the order of their positions; H or OH if unused. Positions of bridges follow the written chain, without caps; N, C: chain ends. Non-standard residues stand in square brackets, D forms with d. Residues, ends and D or L forms follow the SMILES beside them. *: point of attachment. X1 = CC[C@H](C)[C@@H](N[*:1])[C@@H](O)CC(=O)O[C@H](C(=O)[C@H](C)C(=O)[*:2])C(C)C; NMeY = CN[C@@H](Cc1ccc(O)cc1)C(=O)O; dNMeL = CN[C@H](CC(C)C)C(=O)O; Pyruvoyl = CC(=O)C(=O)*
Assay metric: fraction unbound at 5 h, 500 ng/mL

INSERT INTO results (molecule, experimental_value) VALUES
  ('CC[C@H](C)[C@H]1NC(=O)[C@@H](NC(=O)[C@@H](CC(C)C)N(C)C(=O)[C@@H]2CCCN2C(=O)C(C)=O)[C@@H](C)OC(=O)[C@H](Cc2ccc(OC)cc2)N(C)C(=O)[C@@H]2CCCN2C(=O)[C@H](CC(C)C)NC(=O)[C@@H](C)C(=O)[C@H](C(C)C)OC(=O)C[C@@H]1O [Plitidepsin] (Pyruvoyl-P[dNMeL]T[X1]LP[NMeY](Me); ester 3-C)', 0.019);
